assay: Cytotoxicity against human HEPA 59T/VGH cells after 72 hrs by methylene blue assay; format: functional, cell-based
Overview of recorded IC50 for various molecules
Report the value in µg/mL with no unit label.

{"smiles_notation": "CC(=O)O[C@H]1C(=O)[C@@]2(C)[C@H]([C@H](OC(=O)c3ccccc3)[C@]3(O)C[C@H](OC(=O)[C@H](O)[C@@H](NC(=O)c4ccccc4)c4ccccc4)C(C)=C1C3(C)C)[C@]1(OC(C)=O)CO[C@@H]1C[C@@H]2O", "units_of_measure": "µg/mL", "observed": 0.001}

Let us examine a further case.
Query: Specify measured IC50 for `CC(=O)O[C@@]12CO[C@@H]1C[C@H](O)[C@]1(C)[C@@H]2[C@H](OC(=O)c2ccccc2)[C@]23C[C@H](O)C(C)=C2[C@@]1(O)C(=O)OC3(C)C` .
Reply: 0.1

====

assay: Cytotoxicity against human HEPA 59T/VGH cells after 72 hrs by methylene blue assay; assay type: functional, cell-based
Overview of recorded IC50 for various compounds
Report the value in µg/mL with no unit label.

Below, 3 compounds whose answers are already recorded.
{"compound": "CC(=O)O[C@H]1C[C@]2(C(C)(C)O)C(=C1C)[C@@H](OC(C)=O)[C@H](OC(C)=O)[C@@]1(C)[C@@H](OC(C)=O)C[C@H]3OC[C@@]3(OC(C)=O)[C@H]1[C@@H]2OC(C)=O", "IC50 (µg/mL)": 6.02}
{"compound": "CC(=O)O[C@H]1C2[C@@](C)([C@@H](O)C[C@H]3OC[C@@]23OC(C)=O)[C@@H](O)[C@H](O)C2=C(C)[C@@H](O)C[C@]21C(C)(C)O (stereo not given in full)", "IC50 (µg/mL)": 14.5}
{"compound": "CC(=O)O[C@H]1C[C@@]23C(=C1C)[C@@](O)(C(=O)OC2(C)C)[C@@]1(C)[C@H]([C@@H]3OC(=O)c2ccccc2)[C@]2(OC(C)=O)CO[C@@H]2C[C@@H]1O", "IC50 (µg/mL)": 13.9}

Let us examine a further case.
Query: Specify measured IC50 for `CC(=O)O[C@H]1C[C@@]23C(=C1C)[C@@](O)(C(=O)OC2(C)C)[C@]1(C)[C@@H](OC(C)=O)C[C@H]2OC[C@@]2(OC(C)=O)[C@H]1[C@@H]3OC(=O)c1ccccc1` .
Reply: 3.09

====

test: Cytotoxicity against human HEPA 59T/VGH cells after 72 hrs by methylene blue assay; assay type: functional, cell-based
measurement_name: IC50 (µg/mL)
Report the value in µg/mL with no unit label.

Below, 3 compounds whose answers are already recorded.
{"smiles_notation": "CO[C@@]12[C@H](COC(N)=O)C3=C(C(=O)C(C)=C(N)C3=O)N1C[C@@H]1N[C@@H]12", "IC50 / µg/mL": 0.01}
{"smiles_notation": "CC(=O)O[C@@]12CO[C@@H]1C[C@H](OC(=O)c1ccccc1)[C@]1(C)[C@@H]2[C@H](OC(=O)c2ccccc2)[C@]23C[C@H](OC(=O)c4ccccc4)C(C)=C2[C@@]1(O)C(=O)OC3(C)C", "IC50 / µg/mL": 4.83}
{"smiles_notation": "CC(=O)O[C@H]1C[C@@]2(O)[C@H]3OC[C@]4(O)[C@@H](OC(C)=O)C[C@H](OC(=O)c5ccccc5)[C@](C)([C@H]34)[C@@H](OC(=O)c3ccccc3)[C@H](OC(C)=O)C(=C1C)C2(C)C", "IC50 / µg/mL": 7.02}

Let us examine a further case.
Query: Specify measured IC50 for `C=C1[C@@H](O)C[C@H](OC(C)=O)[C@]2(C)[C@@H](OC(C)=O)[C@H](OC(C)=O)C3=C(C)C(=O)C[C@@H]([C@@H](OC(C)=O)[C@H]12)C3(C)C` .
Reply: 3.31
